# Tested on: Bacillus subtilis
# Protocol description: cleaved RNA product abundance (RNA/gDNA barcode ratio) relative to median wild-type variant (ratio to wild type); higher = more accumulation of the downstream cleavage product
# Setup conditions: experiment (reporter, strain, medium): exp 2b: truncated aprE reporter, strain BJT200; cleavage site: cggR-gapA (positions -7 to +36 mutated)
Reported property: cleaved RNA product abundance

1) ACAGACGAAGGAGCCGCAAAGAGGTTATTAAAGGATGAATAATCCCTCAATATAAATATCTCTCACTTATTTAAA : 0.166
2) ACAGACGAAGGAGCCGCAAAGAAGTTATTAAAGGATGAATAATGCCTCAATATAAATATCTCTCACTTATTTAAA : 0.118
3) ACAGACGAAGGAGCCGCAAAGAAGTTATTAAGGGATAAATAATCCCTCAAAATAAATATCTCTCACTTATTTAAA : 0.293
4) ACAGACGAAGGAGCCGCAAAGAAGTTATTAAGGGATGAATAGTCCCTCAATATAAATATCTCTCACTTATTTAAA : 0.912
